# Target of assay: hERG channel (Homo sapiens (Human))
# Protocol: hERG channel inhibition, whole cell patch clamp in HEK293 cells
# Type: cell-based
# Condition parameters: human, HEK293 cells stably expressing hERG channel, pH 7.35; 10 μM
Decide by inhibition at 5 min, 10 µM: equal to or exceeding 30% means condition met, less means condition not met.

// query Determine whether this compound has inhibition at 5 min, 10 µM no lower than 30%: Cc1ccc(COC(=O)N2CC[C@H](CNc3nccn4cnnc34)C(F)(F)C2)cc1 [E1-1.2^B′]
// result condition not met

###

# System: wild type mice (male NMRI)
# Protocol: Marble Burying Test in wild type mice
# Assay type: in vivo, mouse
# Condition parameters: Mus musculus, po, 3 mg/kg; read-out: Percent Change in marbles buried relative to vehicle
Listed compounds paired with reported change in vivo at 3 mg/kg

Field: example entries. Status: answers known.
>>> value("FC(F)c1ccc(C(F)(F)CN2CCC(Nc3ncnc4[nH]ccc34)CC2)cc1 [C-179^A′]")
"-81%"
>>> value("Cc1ccc(COC(=O)N2CC[C@H](CNc3cnc(C)cn3)C(F)(F)C2)cc1 [E1-21.26^B′]")
"-41%"
>>> value("CCc1ccc(COC(=O)N2CC[C@H](CNc3ncccn3)C(F)(F)C2)cc1 [E1-22.5^B′, methanesulfonate]")
"-76%"

Kindly consider the entry below.
// query Form field - read-out: change in vivo at 3 mg/kg; system: wild type mice (male NMRI); submitted item: Cc1ccc(COC(=O)N2CC[C@H](CNc3ncccn3)C(F)(F)C2)cc1 [E1-22.2^B′]
// result -88%

###

# Target of assay: hERG channel (Homo sapiens (Human), UniProt Q12809)
# Sequence (Q12809 whole entry): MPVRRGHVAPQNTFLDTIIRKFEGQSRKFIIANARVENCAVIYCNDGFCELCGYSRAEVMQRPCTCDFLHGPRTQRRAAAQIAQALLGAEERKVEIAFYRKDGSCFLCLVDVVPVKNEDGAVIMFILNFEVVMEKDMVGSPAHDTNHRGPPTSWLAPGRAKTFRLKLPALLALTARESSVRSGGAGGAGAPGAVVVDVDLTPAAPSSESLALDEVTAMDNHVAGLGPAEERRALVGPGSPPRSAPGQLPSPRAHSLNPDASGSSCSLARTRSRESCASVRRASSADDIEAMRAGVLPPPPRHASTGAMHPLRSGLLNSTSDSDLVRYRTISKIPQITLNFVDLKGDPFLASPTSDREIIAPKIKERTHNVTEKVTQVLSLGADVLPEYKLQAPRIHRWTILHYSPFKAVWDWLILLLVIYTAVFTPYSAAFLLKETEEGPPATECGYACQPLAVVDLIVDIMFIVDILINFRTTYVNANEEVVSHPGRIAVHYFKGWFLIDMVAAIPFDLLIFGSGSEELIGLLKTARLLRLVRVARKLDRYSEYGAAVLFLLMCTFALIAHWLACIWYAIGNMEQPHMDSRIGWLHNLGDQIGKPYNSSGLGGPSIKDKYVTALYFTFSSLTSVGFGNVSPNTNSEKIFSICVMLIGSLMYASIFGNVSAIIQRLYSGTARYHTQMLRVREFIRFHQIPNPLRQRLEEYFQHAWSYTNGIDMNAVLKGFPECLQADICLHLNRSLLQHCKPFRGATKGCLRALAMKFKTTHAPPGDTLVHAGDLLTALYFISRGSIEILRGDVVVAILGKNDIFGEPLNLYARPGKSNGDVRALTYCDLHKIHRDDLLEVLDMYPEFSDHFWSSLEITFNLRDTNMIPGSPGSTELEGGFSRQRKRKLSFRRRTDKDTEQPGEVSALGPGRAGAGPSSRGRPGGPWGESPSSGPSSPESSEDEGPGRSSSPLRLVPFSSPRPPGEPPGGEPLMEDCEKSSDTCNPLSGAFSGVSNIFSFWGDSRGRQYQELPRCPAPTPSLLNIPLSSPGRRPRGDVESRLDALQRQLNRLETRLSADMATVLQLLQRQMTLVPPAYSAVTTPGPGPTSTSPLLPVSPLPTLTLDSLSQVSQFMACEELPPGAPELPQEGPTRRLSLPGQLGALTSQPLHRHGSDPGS
# Protocol: hERG channel inhibition, whole cell patch clamp in HEK293 cells
# Format: cell-based
# Condition parameters: Table 1.3A
Assay metric: pIC50
pIC50 here is simply -log10 of the concentration when that concentration is written in mol/L.

Field: example entries. Status: answers known.
>>> value("FC(F)c1ccc(C(F)(F)CN2CCC(Nc3ncnc4[nH]ccc34)CC2)cc1")
5.85
>>> value("Fc1cc(Cl)cnc1C(F)(F)CN1CCC(Nc2ncnc3[nH]ccc23)CC1")
4.22
>>> value("FC(F)(F)c1ccc(C(F)(F)CN2CCC(Nc3ncnc4[nH]ccc34)CC2)cc1")
5.80

Kindly consider the entry below.
// query Name the reported pIC50 value associated with the molecule FC(F)c1ccc(C(F)(F)CN2CCC(Nc3ncnc4[nH]ccc34)CC2)nc1
// result 5.16

###

# Test system: wild type mice (male NMRI)
# Protocol: Marble Burying Test in wild type mice
# Assay type: in vivo, mouse
# Condition parameters: Mus musculus, ip, 0.3 mg/kg; read-out: Percent Change in marbles buried relative to vehicle
Where a name gives a salt, the structure may show the parent alone.
Assay metric: change in vivo at 0.3 mg/kg (%)
Provide only the numeric value, understood in %.

// query Name the reported change in vivo at 0.3 mg/kg value associated with the compound CCc1ccc(COC(=O)N2CC[C@H](CNc3ncccn3)C(F)(F)C2)cc1 [E1-22.5^B′, methanesulfonate]
// result 8

// query Next compound up: Cc1ccc(COC(=O)N2CC[C@H](CNc3ccncc3)C(F)(F)C2)cc1 [E1-38.2^B′, methanesulfonate]
// result 4

// query Next compound up: Cc1ccc(COC(=O)N2CC[C@H](CNc3ncccn3)C(F)(F)C2)cc1 [E1-22.2^B′]
// result -92

// query Next compound up: O=C(OCc1ccc(C(F)F)cc1)N1CC[C@H](CNc2ncccn2)C(F)(F)C1 [E1-22.6^B′, mesylate]
// result -95

// query Next compound up: O=C(OCc1ccc(F)cc1)N1CC[C@H](CNc2ncccn2)C(F)(F)C1 [E1-22.4^B′, methanesulfonate]
// result -6

Measured values drawn from patent US11752155B2 for this set.
